Test system: Bacillus subtilis
Assay Remarks: Antibacterial activity against Bacillus subtilis ATCC 6633 at 1 mg/ml after 24 hrs by agar-diffusion method
Type: functional
Applied Conditions: ATCC 6633, 24 h, read-out: IZ
The threshold is inclusive: zone of inhibition at 1000 µg/mL of exactly 30 mm counts as Met; values below receive Not met.

>  <Molecule>
Cc1[nH]n(-c2ccccc2)c(=O)c1C1=Nc2ccccc2OC1

>  <Target Entity>
Bacillus subtilis

>  <Category Label>
Not met

$$$$
>  <Molecule>
Cc1nn(-c2ccccc2)c2c1/C(=N/c1nc3ccccc3[nH]1)CO2

>  <Target Entity>
Bacillus subtilis

>  <Category Label>
Met

$$$$
>  <Molecule>
Cc1[nH]n(-c2ccccc2)c(=O)c1C(=O)CN1CCOCC1

>  <Target Entity>
Bacillus subtilis

>  <Category Label>
Met

$$$$
>  <Molecule>
CC(=O)OCC1=C(C(=O)O)N2C(=O)[C@@H](NC(=O)Cc3cccs3)[C@H]2SC1 [CEPHALOTHIN]

>  <Target Entity>
Bacillus subtilis

>  <Category Label>
Met

$$$$
>  <Molecule>
Cc1[nH]n(-c2ccccc2)c(=O)c1C(=O)c1cc2ccccc2o1

>  <Target Entity>
Bacillus subtilis

>  <Category Label>
Met

$$$$
>  <Molecule>
Cc1nn(-c2ccccc2)c2c1/C(=N/c1nnc[nH]1)CO2

>  <Target Entity>
Bacillus subtilis

>  <Category Label>
Met

$$$$

* * *

List of zone of inhibition at 1000 µg/mL values.
Test system: Bacillus subtilis
Assay Remarks: Antibacterial activity against Bacillus subtilis ATCC 6633 at 1 mg/ml after 24 hrs by agar-diffusion method
Type: functional
Applied Conditions: ATCC 6633, 24 h, read-out: IZ

>  <Input Smiles>
Cc1[nH]n(-c2ccccc2)c(=O)c1C(=O)c1oc2ccccc2c1C

>  <Target Entity>
Bacillus subtilis

>  <zone of inhibition at 1000 µg/mL (mm)>
37

$$$$
>  <Input Smiles>
O=C(N[C@H](CO)[C@H](O)c1ccc([N+](=O)[O-])cc1)C(Cl)Cl

>  <Target Entity>
Bacillus subtilis

>  <zone of inhibition at 1000 µg/mL (mm)>
42

$$$$
>  <Input Smiles>
Cc1nn(-c2ccccc2)c2c1/C(=N/c1cnccn1)CO2

>  <Target Entity>
Bacillus subtilis

>  <zone of inhibition at 1000 µg/mL (mm)>
32

$$$$

* * *

Test system: Bacillus subtilis
Assay Remarks: Antibacterial activity against Bacillus subtilis ATCC 6633 after 24 hrs by serial dilution method
Format: functional
Applied Conditions: ATCC 6633, 24 h
List of MIC values.

>  <Compound>
Cc1[nH]n(-c2ccccc2)c(=O)c1C1=Nc2ccccc2OC1

>  <Unit Abbreviation>
µg/mL

>  <MIC>
50

$$$$
>  <Compound>
Cc1[nH]n(-c2ccccc2)c(=O)c1C(=O)CN1CCCCC1

>  <Unit Abbreviation>
µg/mL

>  <MIC>
3.12

$$$$
>  <Compound>
Cc1[nH]n(-c2ccccc2)c(=O)c1-c1cc2c(=O)oc3ccccc3c2o1

>  <Unit Abbreviation>
µg/mL

>  <MIC>
12.5

$$$$
>  <Compound>
CC(=O)OCC1=C(C(=O)O)N2C(=O)[C@@H](NC(=O)Cc3cccs3)[C@H]2SC1 [CEPHALOTHIN]

>  <Unit Abbreviation>
µg/mL

>  <MIC>
6.25

$$$$
>  <Compound>
Cc1[nH]n(-c2ccccc2)c(=O)c1C(=O)c1cc2ccccc2o1

>  <Unit Abbreviation>
µg/mL

>  <MIC>
6.25

$$$$
>  <Compound>
Cc1[nH]n(-c2ccccc2)c(=O)c1C1=Nc2ccccc2NC1

>  <Unit Abbreviation>
µg/mL

>  <MIC>
50

$$$$
>  <Compound>
Cc1nn(-c2ccccc2)c2c1/C(=N/c1cnccn1)CO2

>  <Unit Abbreviation>
µg/mL

>  <MIC>
12.5

$$$$
>  <Compound>
Cc1nn(-c2ccccc2)c2c1/C(=N/c1ccccn1)CO2

>  <Unit Abbreviation>
µg/mL

>  <MIC>
25

$$$$
>  <Compound>
Cc1[nH]n(-c2ccccc2)c(=O)c1C(=O)CN1CCOCC1

>  <Unit Abbreviation>
µg/mL

>  <MIC>
12.5

$$$$
>  <Compound>
Cc1[nH]n(-c2ccccc2)c(=O)c1C1=Nc2ccccc2SC1

>  <Unit Abbreviation>
µg/mL

>  <MIC>
100

$$$$
